experiment: yeast display, Sf9 membrane polyspecificity reagent, FACS + sequencing; frameworks hold sequencing errors
measurement.name: polyreactivity (PSR sort gate)

sequence.input: QVQLVESGGGLVQARGSLRLSCAASGSIFAQYAMGWYRQAPGKERELVAAITRSTGRTYYADSVKGRFTISRDNANNTVYLQMNSLKPEDTSVYYGNARQRQSKYYPYTTFTYDYWGQGTQVTVSS
result: high polyreactivity
//
sequence.input: QVQLVESGGGLVQAGGSLRLSCAASGSTFYPNAMGWYRQAPGKERELVAAITDSVGTTNYADSVKGRFTISRDNAKNTVYLQMNSLKPEDTAVYYCAKVKSYWNGYRYYYWGQGTQVTVSS
result: low polyreactivity
//
sequence.input: QVQLVESGGGLVQAGGSLRLSCAASGRIFPYNAMGWYRQAPGKERELVASITGSGGSTYYADSVKGRFTISRDKAKKTVYLQMNSLKPEDTAVYYCAVQGGYFYTWDGDYWGQGTQVTVSS
result: low polyreactivity
//
sequence.input: QVQLVESGGGLVQAGGSLRLSCAASGRIFRKYTMGWYRQAPGKERELVAAISRNGGDTYYADSVKGRFTISRDNAKNTVYLQMHSLKPEDPAVYYCNARTPPDSTHFAYWGQGTQVTVSS
result: low polyreactivity
//
sequence.input: QVQLVESGGGLVQAGGSLRLSWDASGYTFSRNAMGWYRQAPGKERELVAGISWSGSRTYYADSVKGRFTISRDNAKNTVYLQMNSLKPEDTAVYYCAVLAYGPRNARGGTAGYDYWGQGTEVTVSS
result: high polyreactivity
//
sequence.input: QVQLVESGGGLVQAGGSLRLSCAASGFTFTYYAMGWYRQAPGKERELVAAISRNGGDTYYADSGKGRFTISRDNAKNTVYLQMNSLKPEDSAVYYCNARTPTDSTHFDYWGQGTQVTVSS
result: low polyreactivity
//
sequence.input: QVQLVESGGGLVQAGGSLRLSCAASGRTFGFYDMGWYRQAPGKERELVAAIRGSIGYTYYADSVKGRITISRDNAKNTVYLQMTSLKPEDTAVYYCAKAIRYPAAKFYWGQGSQVTVSS
result: high polyreactivity
//
sequence.input: QVQLVESGGGLVQAGGILRLSCDASGRIFYTYAMGWYRHGPGQERELVAAISRSGTSTYYADSLKGRFTIARDNEKNHVYLQMNSLKPEDTAVYYCAIYKRLPDYGYWGQGTLVTVSS
result: high polyreactivity
//
sequence.input: QVQLVESGGGLVQAGGSLPLSCAASGSTFLQYAMGWYRQAPGKERELVAAIRGRGDSTYYADSVNGRFTISRDNEMNTVYLQMNSLKPVDSAVYSCAARGQGSRGMYYWGQGTKVTVSS
result: low polyreactivity
//
sequence.input: QVQLVESGGGLVQAGGSLRLSCAASGSTFDSNVMGWYRQAPGKERELVAAIDLSGGITYYADSVKGRFTISRDNAKNTVYLQMNSLKPEDTAVYYCATDEGYRYPHVDLTEVYYWGQGTQVTVSS
result: low polyreactivity
//
sequence.input: QVQLVESGGGLVQAGGSLRLSCAACGSISVYNAMGWYRQAPGKERELVAAISWSGGRTSYADSVKGRFTISRDNAKNTVYLQMNSLKPEDTAVYYCAADELTVMWDEDYWGQGTQVTVSS
result: low polyreactivity

====

experiment: yeast display, Sf9 membrane polyspecificity reagent, FACS + sequencing; frameworks hold sequencing errors

sequence.input: QVQLVESGGGLVQAGGSLRLSCAASGFTFRRNTMGWYRQEPGKERELVAAITQRGGSTYYADSVKGRFTISRDNAKNTVYLQMNSLKPEDTAVYYCAVDRHSYIYKYDYWGQGTQVTVSS
polyreactivity (PSR sort gate): high polyreactivity

sequence.input: QVQLVESGGGLVQAGGSLRLSCAASGSIIKRNAMGWYRQAPGKERELVASISSGGSTKYADSVKGRFTISRDNAKNTVYLQKNSLKPEDTAVSYCAKRSSQTRRAYDYGGQGTQVTVSS
polyreactivity (PSR sort gate): low polyreactivity

sequence.input: QVQLVESGGGLVQAGGSLRLSCAASGSTFYAYAMGSYRQSPGKERELVAVITSGGTTKYADSVKGRFTISRDNAKNTVYLQLNSLKPEDTAVYYCNVAGRDYAVRWGSFVFWGQGTQVTVSS
polyreactivity (PSR sort gate): low polyreactivity

sequence.input: QVQLVESGGGLVQAGGSLRLSCAASGRTLRINTMGWYRQAPGKERELVADITSSGGSTYYADSVKGRFTISRDNAKNTVYLQMNSLKPEDTAVYYCAADPIDIYYWEFDYLGQGTQVTVSS
polyreactivity (PSR sort gate): low polyreactivity

sequence.input: QVQLVESGGGLVQAGGSLRLSCAASGRIFYYNTMGWYRQAPGKERELVAAISSTASTTYADSVKGRFTISRDNAKNTDYIQMNSLKPEDTAVYYCAADHRYHWANPRGYYYWGQGTQVTVSS
polyreactivity (PSR sort gate): high polyreactivity

====

experiment: yeast display, Sf9 membrane polyspecificity reagent, FACS + sequencing; frameworks hold sequencing errors

sequence.input: QVQLVESGVGLVQAGGSLSLSCAASGFTISLNTMGWYRQAPGKERELVAAITYSGTRTYYADSVKGRFTISRDNAKNTVDLQMNRLKPEDTAVYYCAARHGQSWQWLEYDYWGQGTQVTVSS
polyreactivity (PSR sort gate): low polyreactivity
//
sequence.input: QVQLVESGGGLVQAGGSLRLSCAASGSIFYGYTMGWYRQAPGKERELVAGITRSGTSTYYADSVKGRFTISRDNAKNTVYLQMNSLNPQDTAVYYCARVGLSKRYGSWGQGTEVTVSS
polyreactivity (PSR sort gate): high polyreactivity
//
sequence.input: QVQLVESGGGLVQAGGSLRLSCAASGSTFYIYAMGWYRQAPGKEREFVAAISRTGGSTYYADSVKGRFTISRDNAKNTVYLQMNSLKPEDTAVYYCAAEYKGFRGRYDYWGQGTQVTVSS
polyreactivity (PSR sort gate): high polyreactivity
//
sequence.input: QVQLVESGGGLVQAGGSLRLSCAASGFILPNYAMGWYRQATGKERELVDAITYIGGSTYYADSVKGRFTISRDNAKNTVYLHMNSLKPEDTAVYYCAKYWLGYTKFDYWGQGTQVTVSS
polyreactivity (PSR sort gate): low polyreactivity
//
sequence.input: QVQLVESGGGLVQAGGSLRLSCAASGSTFLRYAMGWYRQAPGKERELVATITSGGSTYADSVKGRFTISRDNAKNTVYLQMNSLKPEDTAVYYCAARANTKKPYYYWGQGTQVTVSS
polyreactivity (PSR sort gate): high polyreactivity

====

experiment: yeast display, Sf9 membrane polyspecificity reagent, FACS + sequencing; frameworks hold sequencing errors
measurement.name: polyreactivity (PSR sort gate)

sequence.input: QDQLVESGVGLDQAGVSLRLSCAASGRTFKGNAMGWYSQATGKESELVAVITGSGGSTYYADSVKGRFTISRDNAKNTVYLQMTSLKPEDTAVYYCNKTLQRRSWYDYWGQGTQVTVSS
result: low polyreactivity
--
sequence.input: QVQLVESGGGLVQAGGSLRLSCAASGRTSRSYAMGWYRQAPGKERELVAAISWSGGSTYYADSVKGRFTMSRDNAKNTVYLQMNSLKPEDTAGYYCNALTLAGYDYWGQGTQVTVSS
result: high polyreactivity
--
sequence.input: QVQLVESAGGLVQAGGSLRLSCAASGRIFWGNAMGWYRQAPGKERELVAAITRRGGTKFYADSVKGRFTISRDNAKNTVYLQMNSLIPEDTAVYYCAARRYGQYDGYDSWGQGTQVTVSS
result: high polyreactivity
--
sequence.input: QVQLVDSGGGLVQAGGSLRLSCAAYGRIFGIYTMGWYRQAPGKERELVAAIRFSGSRTYYADSVKGRFTISRDNAKNTVYLQMNSLKPEDTAVYYCNADWWFYRLRNEYWGQGTQVTVSS
result: high polyreactivity
--
sequence.input: QVQLVESGGGLVQAGGSLRLSCAASGRIFVFNAMGWYRQAPGKERELVATIDRGGSTNYADSVKGRFTISRDNAKNTVYLQMNSLKPEDTAVYYCAAGVVGKRSRTGYYWGQGTQVTVSS
result: low polyreactivity

====

experiment: yeast display, Sf9 membrane polyspecificity reagent, FACS + sequencing; frameworks hold sequencing errors
measurement.name: polyreactivity (PSR sort gate)

sequence.input: QVQLVESGGGLVQAGGSLRLSCAASGIFRYYAMGWYRQAPGKERELVATITRSSGSTYYADSVKGRFTISRDNAKNTVYLQMNSLKPEDTAVYYCAARGPYFNRGTRYDYWGQGTQVTVSS
result: high polyreactivity
--
sequence.input: QLQLVESGGGLVQEGGSLRISCDASGSTFDDNAMACYRQAPGKERELVAGIDVSGGSTYYADSVKGRFTISRDNAKKTVYLQMTSLTPEDTAVYFCAKGRPGHRTSSVNFNYWGQGTQVTVSS
result: low polyreactivity
--
sequence.input: QVQLVESGGVLVQAGGSLRLSCAASGNIFYAYAMGWYRQAPGKERELVAAISWSGDSTYYADSVKGRFTISRDNAKNTVNLQMNSLKPEETAVEYCAADSYRFYSGYYYWGQGTQVTVSS
result: low polyreactivity
--
sequence.input: QVQLVESGGGLVQAGGSLRLSCAASGFTFGVYAMGWYRQAPGKERELVAAITATGGSTYYADSVKGRFTISRDNAKNTVYLQMNSLKPEDTAVYYCAADLDGTLSVYDYHTTGDDYWGQGTQVTVSS
result: low polyreactivity
--
sequence.input: QVQLVESGGGLVQAGGSLRLSCAASGSIFYGNAMGWYRQAPGKERELVAAISTRGGSTYYADSVKGRFTISRDYAKNTVYLQMNSLKPEDTAVYYCNADSRRRLFDYWGQGTQVTVSS
result: high polyreactivity
--
sequence.input: QVQLVESGGGLVQAGGSLRLICAASGSTFAYNDMGWYRQAPGTERELVADIRSGGNTNYADSVKGRFTISRDNAKNTVYLQMNSLKPEDTAVYYCATDGYRIDVYHPDYRYDYWGQGTQVTVSS
result: low polyreactivity
--
sequence.input: QVQLVESGGGLVQAGGSHRLSCASSGIIFAWYVMGWSRQAPGKDSELVAAITQSGGSTFYADSVKGRFTISRDNAKNTVYLQMNSLKPEDTEVYYCNTEDFFNVPEMDSWGQGTQVTVSS
result: low polyreactivity
--
sequence.input: QVQLVDSGGGLVQAGGSLRLSCAASGRIFGAYTMGWYRQAPGKEREFVADITSGGSTDYADSVKGRFTISRDNAKNTVSLQMNSLKPEDTAVYYCAAGGWVASLYLYDYWGHGTQVTVSS
result: low polyreactivity
--
sequence.input: QVQLVESGGGLVQAGGRLRLSCAASGRIFVYNAMGWYRQAPGKERELVAAINYRGTRTYYADSVKGRFTISRDNAKNTVYLQLNSLKPEDTAVYYCATYLVTGGGLNVRYDYWGQGTQVTVSS
result: high polyreactivity
--
sequence.input: QVQLVESGGGLVQAGGSLRLSCAASGRTFGINAMGWYRQAPGKERELVAVISFADGGTYYADSVKGRFTISRDNAKNTVYLQMNSLKPEDTAVYYCATDYQSTSVWGGHFVINPYDYWGLGTQVTVSS
result: low polyreactivity
--
sequence.input: QLQLVESGGGLVQAGGSLRLSCAASGFTFSDYARGWYRQAPGKERELVAAINTSGGSTYYADSVKGRFTISRDNAKNTVYLQMNSLKPEDTAVYYCAAKYASLDRRRRKYDYWGQGTQVTVSS
result: high polyreactivity
--
sequence.input: QVQLVESGGGLVQAGGTLRLSCAASGSTFIGNAMGWYRQAPGKVRELVATITSGDSKYADSVKGRFTISRDNAKNTVYLQMNSLKPEDTAVYYCNADPWDIGSTFELDYWGQGTQVTVSS
result: low polyreactivity
--
sequence.input: QVQLVESGGGLVQAGGSLRLSCAASGRIFAGYAMGWYRQAPGTERELVATITRGGSTNYADSVKRPFTISRDNAKNTVYLQMNSLKPEDTAVYYCNADIRRHGGYAHEYWGQGTKVTVSS
result: low polyreactivity
--
sequence.input: QVQLVESGGGLVQAGGSLRLSCAASGIIFKTYAMGWYRQAPGKERELVAGIDYSGGGTSYADSVKGRFTISRDNAKNTVYLQMNSLKPEDTAVYYCAADAYSGAYFTYLGEIYDYWGQGTQVTVSS
result: low polyreactivity
--
sequence.input: QVQLVESGGGLVQAGGSLRLSCAASGRTFWNYAMGWYRQAPGKERELVAVIRFSDGSTYYSDSVKGRFTISRDKAKNTVYLQMNSLKPEDTAVYYCGAKGPRRWGSGFDYWGQGTQVNVSS
result: low polyreactivity
--
sequence.input: QVQLVESGGGLVQAGGSLRLSCAASGSTFPFYAMGWYRQAPGKERELVAAIPSGGSTYADSVKGRFTISRDNAKNTVYLQMNSLKPEDTAVYYCAASWPRWWRFGYWGQGTQVTVSS
result: low polyreactivity
--
sequence.input: QVQLVEAGGGLVQAGGSLRLSCAASGRTLYPYAMGWYRQAPGKERELVAAISSRGGSTYYADSVKGRFTISRDNAKNTVYLQMNSLKPEDTAVYYCAKSYRKILSITGLVPWTDYFWGQGTQVTVSS
result: low polyreactivity
--
sequence.input: QVQLVESGGGLVQAGGSLRLSCAASGSTFVDYDMGWYRQAPGKERELVAAITYSGARTYYADSVKGRFTISRDNAKNTVYLQMNSLKPEDTAVYYCNADQRTASDQLEFDYWGQGTQVTVSS
result: low polyreactivity
--
sequence.input: QVQRVESGGGLVQAGGSLRLSSAGSGSIFNIYTMGWYRQAPGKERELVAAISYGGGSTYADSVKGRLTISRDNAKNTVYLQMNSLKPEDTAVYYCNAKRTYHWRWYQYDYWGQGTQVTVSS
result: high polyreactivity
--
sequence.input: QVQLVESGGGLVQAGGSLRLSCAASGFIFWYYAMGWYRQSPGTERELVAGITSGGSTNYADSVKGRFTISRDNAKNTVYLQMNSLKPEDTAVYYCAAAPYGGFGRGYDYWGQGTQVTVSS
result: high polyreactivity
--
sequence.input: QVQLVESGGGLVQAGGSLRLSCAASGPTFDYNAMGCYRPAPGKERELVAAIRFGGGSTYYADSVKGRFTISRDNAKNTVYFQINSLKPEDTAVYYCNASPLWIGWVIVPVGSSHYDYWGQGTQVTVSS
result: low polyreactivity
